FYI, the data here is from paper PMC5155426.

I'd be grateful if you could share measured solubility for these entries.
Assay: physchem
Conditions: saline or isotonic, thermodynamic from solid, Solubility

Field request: solubility | item: Oc1c(Cl)c(Cl)c(O)c(Cl)c1Cl [HQ(1,4)TCl, Tetrachloro hydroquinone]
< 10 mM

Item under review: `c1ccc2nc3ccccc3nc2c1` . Reported solubility?
< 10 mM

* * *

Record form. Attribute: formal redox potential E0'. Fill in for each entry.
Experiment: Cyclic voltammetry: formal redox potential, peak current ratio, electrochemical reversibility
Assay type: physicochemical
Settings: pH 0 (1 M H2SO4); midpoint of CV peak potentials; about 1 mM; acetone added for insoluble compounds
Experimental: The investigated compounds were used as-purchased and without any purification. […] For each series of CVs, a freshly polished electrode was used. The CVs for soluble compounds in 1 mM concentration were recorded in a glass beaker with a customized lid in nitrogen purged solutions of three different pHs, namely pH 0 (1 M H2SO4), pH 7 (0.5 M phosphate buffer) and pH 13 (1 M NaOH). […] A background CV was recorded before each CV experiment to exclude background contaminations. […]

I would be grateful if you could share the reported formal redox potential E0' for `O=S(=O)(O)c1cc(O)c(O)c(S(=O)(=O)O)c1` .
0.86(3) VNHE

Would you mind telling me what formal redox potential E0' value was observed for O=C1c2ccc(O)c(O)c2C(=O)c2c(O)ccc(O)c21 [AQTH(1,2), 1,2,5,8-tetrahydroxy-9,10-anthraquinone] ?
-0.084(5) VNHE

May I ask what formal redox potential E0' has been recorded for Oc1c(Cl)c(Cl)c(O)c(Cl)c1Cl [HQ(1,4)TCl, Tetrachloro hydroquinone] ?
0.70(1) VNHE

Which formal redox potential E0' is listed for O=C1c2c(O)ccc(O)c2C(=O)c2c(O)ccc(O)c21 [AQTH(1,4), 1,4,5,8-tetrahydroxy-9,10-anthraquinone] ?
0.200(4) VNHE

* * *

For each entry below, report its formal redox potential E0' value.
Experiment: Cyclic voltammetry: formal redox potential, peak current ratio, electrochemical reversibility
Type: physicochemical
Conditions: pH 0 (1 M H2SO4); midpoint of CV peak potentials; about 1 mM; acetone added for insoluble compounds

Please report the recorded formal redox potential E0' for `O=C1C(O)=C(Cl)C(=O)C(O)=C1Cl` .
0.394(1) VNHE

Dear colleague, I am looking for the recorded formal redox potential E0' of the following compound: `O=C(O)c1cc(O)c2c(c1)C(=O)c1cccc(O)c1C2=O`
0.041(9) VNHE

Consider the compound shown here: `O=C1c2cccc(S(=O)(=O)[O-])c2C(=O)c2c1cccc2S(=O)(=O)[O-].[K+].[K+]` What is its recorded formal redox potential E0'?
0.03 VNHE

Which formal redox potential E0' value is on record for Oc1ccc(O)cc1 [HQ(1,4), Para hydroquinone] ?
0.669(5) VNHE

State the recorded formal redox potential E0' for this entry: `CC(C)=CCC1=C(O)C(=O)c2ccccc2C1=O`
0.333(3) VNHE

formal redox potential E0' for `c1cnccn1` ?
-0.013(2) VNHE

Param item = O=C1C=C(O)C(=O)c2ccccc21 [NQ(1,4)H, 2-hydroxy-1,4-naphtoquinone] ; retrieve measured formal redox potential E0'.
0.308(4) VNHE

Give the measured formal redox potential E0' of `c1ccc2nc3ccccc3nc2c1` .
0.403(3) VNHE

GET /values?readout=formal redox potential E0'&item= O=C1c2ccccc2C(=O)c2c1ccc(O)c2O [AQDH(1,2), 1,2-dihydroxy-9,10-anthraquinone]
0.005(4) VNHE

Give its formal redox potential E0' value. Item: O=C1C=C(S(=O)(=O)O)c2ccccc2C1=O [NQ(1,2)S, 1,2-naphtoquinone-4-sulfonate sodium]
0.55(1) VNHE

Find the recorded formal redox potential E0' belonging to `O=C1c2cccc(S(=O)(=O)[O-])c2C(=O)c2cccc(S(=O)(=O)[O-])c21.[Na+].[Na+]` and report it.
−0.03 VNHE

Look at this compound and give its reported formal redox potential E0'. O=S(=O)([O-])c1cc(O)ccc1O.[K+] [HQ(1,4)S, 2,5-dihydroxybenzenesulfonate potassium]
0.664(8) VNHE

Give the measured formal redox potential E0' of O=C1C(O)=C(O)C(=O)C(O)=C1O [BQ(1,4)TH, Tetrahydroxy-1,4-benzoquinone] .
0.28 VNHE

// formal redox potential E0' lookup, key: Oc1c(F)c(F)c(O)c(F)c1F [HQ(1,4)TF, 1,2,4,5-tetrafluoro-3,6-dihydroxybenzene]
0.707(4) VNHE

Field request: formal redox potential E0' | item: `Nc1c(S(=O)(=O)[O-])cc(Br)c2c1C(=O)c1ccccc1C2=O.[Na+]`
0.14(4) VNHE

Consider the compound shown here: `Cc1cc(O)c2c(c1)C(=O)c1cc(O)cc(O)c1C2=O` What is its recorded formal redox potential E0'?
-0.04(1) VNHE

GET /values?readout=formal redox potential E0'&item= `O=C1c2ccc(S(=O)(=O)O)cc2C(=O)c2cc(S(=O)(=O)O)ccc21`
0.165 VNHE

Value lookup for formal redox potential E0'; key = `O=C(O)c1cnccn1`
-0.013(3) VNHE

* * *

Please provide measured Peak current ratio for the entries that follow.
Test: Cyclic voltammetry: formal redox potential, peak current ratio, electrochemical reversibility
Format: physicochemical
Details: pH 13
Procedure: The investigated compounds were used as-purchased and without any purification. […] For each series of CVs, a freshly polished electrode was used. The CVs for soluble compounds in 1 mM concentration were recorded in a glass beaker with a customized lid in nitrogen purged solutions of three different pHs, namely pH 0 (1 M H2SO4), pH 7 (0.5 M phosphate buffer) and pH 13 (1 M NaOH). […] A background CV was recorded before each CV experiment to exclude background contaminations. […]

May I ask what Peak current ratio has been recorded for O=C1c2cccc(O)c2C(=O)c2c(O)cc(CO)cc21 [AQDH(1,8)MH] ?
1.03(1)

Please give the measured Peak current ratio for this molecule: CC(C)=CCC1=C(O)C(=O)c2ccccc2C1=O [NQ(1,4)HB]
0.38(4)

Given the molecule Cc1cc(O)c2c(c1)C(=O)c1cc(O)cc(O)c1C2=O [AQTrHM] , what is its reported Peak current ratio?
0.2(2)

Name the reported Peak current ratio value associated with the molecule O=C1C=C(O)C(=O)C=C1O [BQ(1,4)DH, 2,5-dihydroxy-1,4-benzoquinone]
0.8(1)

Which measured Peak current ratio value corresponds to O=C1c2c(O)ccc(O)c2C(=O)c2c(O)ccc(O)c21 [AQTH(1,4), 1,4,5,8-tetrahydroxy-9,10-anthraquinone] ?
1.2(1)

Which Peak current ratio value belongs to O=C1c2ccccc2C(=O)c2c(O)ccc(O)c21 [AQDH(1,4), 1,4-dihydroxy-9,10-anthraquinone] ?
1.05(3)

# lookup: Peak current ratio of O=C1c2ccc(S(=O)(=O)O)cc2C(=O)c2cc(S(=O)(=O)O)ccc21 [AQDS(2,7)]
0.96(7)

Looking for the measured Peak current ratio of O=C1c2ccccc2C(=O)c2c1ccc(O)c2O [AQDH(1,2), 1,2-dihydroxy-9,10-anthraquinone] , can you help?
1.2(1)

Using the record for O=C(O)c1cc(O)c2c(c1)C(=O)c1cccc(O)c1C2=O [AQDH(4,5)CA] , report its Peak current ratio.
1.23(7)

Would you mind telling me what Peak current ratio value was observed for O=C1c2ccccc2C(=O)c2cc(S(=O)(=O)O)ccc21 [AQS(2), 9,10-anthraquinone-2-sulfonate sodium] ?
1.2(2)

Item under review: O=C1c2cccc(O)c2C(=O)c2cccc(O)c21 [AQDH(1,5), 1,5-dihydroxy-9,10-anthraquinone] . Reported Peak current ratio?
0.79(9)

Param item = O=C1c2ccc(O)cc2C(=O)c2ccc(O)cc21 [AQDH(2,6), 2,6-dihydroxy-9,10-anthraquinone] ; retrieve measured Peak current ratio.
1.1(1)

Dear colleague, I am looking for the recorded Peak current ratio of the following molecule: O=C1C=C(S(=O)(=O)O)c2ccccc2C1=O [NQ(1,2)S, 1,2-naphtoquinone-4-sulfonate sodium]
0.9(1)

Peak current ratio lookup needed for O=C1c2cccc(S(=O)(=O)[O-])c2C(=O)c2cccc(S(=O)(=O)[O-])c21.[Na+].[Na+] [AQDS(1,5)] , thanks.
1.17(4)

Quick one: Peak current ratio of Oc1c(F)c(F)c(O)c(F)c1F [HQ(1,4)TF, 1,2,4,5-tetrafluoro-3,6-dihydroxybenzene] ?
0.2(1)

Any idea what its Peak current ratio is? The molecule is O=C1C=C(O)C(=O)c2ccccc21 [NQ(1,4)H, 2-hydroxy-1,4-naphtoquinone]
0.73(6)

* * *

Experiment: Cyclic voltammetry: formal redox potential, peak current ratio, electrochemical reversibility
Type: physicochemical
Settings: pH 13
measured-attribute: Electrochemical reversibility

>>> reported("O=C1c2ccc(S(=O)(=O)O)cc2C(=O)c2cc(S(=O)(=O)O)ccc21")
"Reversible"
>>> reported("CC(C)=CCC1=C(O)C(=O)c2ccccc2C1=O")
"Quasireversible"
>>> reported("O=C(O)c1cc(O)c2c(c1)C(=O)c1cccc(O)c1C2=O")
"Reversible"
>>> reported("O=C1C(O)=C(O)C(=O)C(O)=C1O [BQ(1,4)TH, Tetrahydroxy-1,4-benzoquinone]")
"Quasireversible"
>>> reported("O=C1c2ccc(O)c(O)c2C(=O)c2c(O)ccc(O)c21 [AQTH(1,2), 1,2,5,8-tetrahydroxy-9,10-anthraquinone]")
"Reversible"
>>> reported("O=C1c2ccccc2C(=O)c2c(O)ccc(O)c21 [AQDH(1,4), 1,4-dihydroxy-9,10-anthraquinone]")
"Reversible"

As a next step, examine the compound that follows.
# lookup: Electrochemical reversibility of O=C1c2c(O)ccc(O)c2C(=O)c2c(O)ccc(O)c21 [AQTH(1,4), 1,4,5,8-tetrahydroxy-9,10-anthraquinone]
Reversible
